system: OTU domain-containing protein 7B (Homo sapiens)
Sequence (Q6GQQ9 whole entry): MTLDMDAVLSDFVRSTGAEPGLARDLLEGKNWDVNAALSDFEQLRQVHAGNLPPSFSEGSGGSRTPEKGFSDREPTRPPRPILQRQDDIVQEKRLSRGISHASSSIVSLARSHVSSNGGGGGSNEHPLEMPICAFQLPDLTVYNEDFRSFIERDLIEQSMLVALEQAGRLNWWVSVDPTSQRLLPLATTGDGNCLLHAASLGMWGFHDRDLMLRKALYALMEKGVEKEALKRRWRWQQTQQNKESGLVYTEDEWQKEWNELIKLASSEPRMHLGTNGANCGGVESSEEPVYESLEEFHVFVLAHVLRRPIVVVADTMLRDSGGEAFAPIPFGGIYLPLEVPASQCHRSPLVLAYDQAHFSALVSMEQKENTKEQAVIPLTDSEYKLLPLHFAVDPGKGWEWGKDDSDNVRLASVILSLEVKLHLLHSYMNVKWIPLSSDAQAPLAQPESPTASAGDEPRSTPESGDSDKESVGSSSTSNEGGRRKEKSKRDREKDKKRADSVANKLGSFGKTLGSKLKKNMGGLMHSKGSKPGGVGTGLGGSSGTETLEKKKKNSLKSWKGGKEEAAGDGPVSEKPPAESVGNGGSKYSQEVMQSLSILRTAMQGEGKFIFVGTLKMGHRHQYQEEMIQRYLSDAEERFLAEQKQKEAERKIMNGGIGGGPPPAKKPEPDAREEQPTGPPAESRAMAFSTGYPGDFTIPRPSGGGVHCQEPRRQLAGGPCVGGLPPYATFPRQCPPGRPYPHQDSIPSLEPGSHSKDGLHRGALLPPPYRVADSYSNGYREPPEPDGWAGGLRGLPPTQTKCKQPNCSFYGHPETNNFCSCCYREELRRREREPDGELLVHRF
assay.overview: Biochemical Assay: Dilution plates were prepared at 21 times the final concentration (2100 μM for a final concentration of 100 μM) in 50% DMSO in a 96-well polypropylene V-bottom plate (Greiner #651201). A typical 8-point dilution series to be 100, 30, 10, 3, 1, 0.3, 0.1, 0.03 μM final. Reactions were performed in duplicate in black 384 well plates (small volume, Greiner 784076) in a final reaction volume of 21 μl. Either 1 μl of 50% DMSO or diluted compound was added to the plate. Cezanne 1 was diluted in reaction buffer (40 mM Tris, pH 7.5, 0.005% Tween 20, 0.5 mg/ml BSA, 5 mM-beta-mercaptoethanol) to the equivalent of 0.005 μl/well and 10 μl of diluted Cezanne 1 was added to the compound. Enzyme and compound were incubated for 30 min at room temp. Reactions were initiated by the addition of 50 nM of TAMRA labelled peptide linked to ubiquitin via an iso-peptide bond as fluorescence polarisation substrate. Reactions were read immediately after addition of substrate and following a 2 hr incubation at room temperature. Readings were performed on a Pherastar Plus. λ Excitation 540 nm; λ Emission 590 nm.
pIC50: −log10 of the molar value.
measured.attribute: pIC50

> print(dat)
                                   molecule  result
1  Cc1ccc2[nH]ncc2c1-c1cnc2c(c1)NC(=O)C1(CCN(C#N)C1)N2 (stereo unspecified)  > 7.00
